From: ChEMBL document CHEMBL5724796

tgt: Cyclin-dependent kinase 2 (Homo sapiens) (UniProt P24941)
test.parameters: Compound concentration 20.0 uM
Description: Thermal Shift Assay. Domain: start/stop: M1-L298
Residues, ends and D or L forms follow the SMILES beside them. *: point of attachment. CH2Cl = ClC*
Measured ΔTm of individual entries
Just the number please, in °C, no unit attached.

Examples with their reported ΔTm follow.
[[record]]
molecule = "CCCSc1nc(N[C@@H]2C[C@H]2c2ccc(F)c(F)c2)c2nnn([C@@H]3C[C@H](OCCO)[C@@H](O)[C@H]3O)c2n1"
u = "°C"
numeric_readout = -0.32

[[record]]
molecule = "Cc1c(F)c(N)cc(C(=O)Nc2cc(-n3cc(C(=O)NCCCN4CCOCC4)nn3)ccc2N2CCN(C)CC2)c1Cl"
u = "°C"
numeric_readout = 0.07

[[record]]
molecule = "N[C@@H](CCCCB(O)O)C(=O)O"
u = "°C"
numeric_readout = 0.26

[[record]]
molecule = "OC[C@H]1O[C@@H](c2ccc(Cl)c(Cc3ccc(OCCOC4CC4)cc3)c2)[C@H](O)[C@@H](O)[C@@H]1O"
u = "°C"
numeric_readout = 0.19

[[record]]
molecule = "O=[N+]([O-])c1ccc(CSc2ncnc3c2ncn3[C@@H]2O[C@H](CO)[C@@H](O)[C@H]2O)cc1"
u = "°C"
numeric_readout = -0.1

[[record]]
molecule = "CCCCCCCCCCCCCC(=S)NCCCC[C@H](NC(=O)OCc1ccccc1)C(=O)Nc1ccccc1"
u = "°C"
numeric_readout = 1.43

[[record]]
molecule = "NC(=S)c1cccc(-c2cn(C3CCN(S(=O)(=O)C(F)(F)F)CC3)c3cc(CNC(=O)C4CNC4)ccc23)c1"
u = "°C"
numeric_readout = 1.5

[[record]]
molecule = "CC(=O)N[C@@H](CC(C)C)C(=O)N[C@@H](CCC(=O)O)C(=O)N[C@@H](Cc1cnc[nH]1)C(=O)N[C@@H](CC(=O)O)C(=O)CCl (Ac-LEHD-CH2Cl)"
u = "°C"
numeric_readout = -0.58


// query Need ΔTm, item "COc1ccccc1[C@H]1[C@H](C(=O)O)[C@H](c2ccccc2OC)[C@H]1C(=O)Oc1cccc2ccccc12"
// result -0.65

// query Need ΔTm, item CN(C)CC(c1ccc(O)cc1)C1(O)CCCCC1 (centres undefined)
// result 0.04

// query Need ΔTm, item "CC(C)c1ccc(-c2cc(=O)c3ccccc3o2)cc1"
// result -0.03

// query Need ΔTm, item "Cc1cc(C)c(CNC(=O)c2cc(-c3ccc(N4CCN(C)CC4)nc3)cc3c2c(C)cn3C(C)C)c(=O)[nH]1"
// result 0.39

// query Need ΔTm, item "CCn1c(=O)c(C)cn(Cc2nnc(-c3ccc(F)c(O)c3F)s2)c1=O"
// result -0.07

// query Need ΔTm, item "CCCc1nc(C)c2c(C)nc3ccc(OC)nc3n12"
// result -0.07

// query Need ΔTm, item "CCc1c(C)nc(-c2ccc(Cl)s2)nc1Nc1ccc(CC(=O)O)cc1"
// result 0.44
